Measured normalized growth, listed per entry for reference.
experiment: chemical genetic growth profiling, strain panel (AID 1159580);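 note: tested at 20 µM; growth read once vehicle control cultures reached saturation at 30 °C; 1 = growth at the plate median or of vehicle wells; lower values mean less growth of the strain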; conditions: S. cerevisiae deletion strains, growth OD, locus YOR061W, strain CKA2, active compounds read low
Screen size: about 5,500 compounds; about 2,000 (36%) were called active. Not shown: some 18% with an inconclusive outcome. This is one part of the list.

MOLECULE | normalized growth
COc1ccc(C(Cl)=C(c2ccc(OC)cc2)c2ccc(OC)cc2)cc1 | 1.01 (inactive)
Oc1ccc(Cl)c2cccnc12 | 0.0478 (active)
CC(=O)O[C@@H]1CC2C(C)(C)C=CC(=O)[C@]2(C)C2CC[C@@]3(C)[C@H](c4ccoc4)OC(=O)C4OC43[C@@]21C (some centres undefined) | 1.02 (inactive)
CCN(CC)CCOc1ccc2c(c1)C(=O)c1cc(OCCN(CC)CC)ccc1-2 | 0.994 (inactive)
